test: Inhibition of bacterial New Delhi metallo-beta-lactamase 1 (1- 270) (unknown origin) expressed in Escherichia coli Transetta (DE3); design: species or system Bacteria
ASSAY_READOUT: pIC50
Lab note: report pIC50 as minus log10 of the concentration in molar units, number only.

Take a look at these entries with their results.
CN(C)c1ccc(C2OB(O)c3ccc(Cl)cc32)cc1 (configuration not stated) | 5.04
OB1OC(c2c[nH]c3ccccc23)c2ccccc21 (configuration not stated) | 5.22
Cc1ccc2[nH]cc(C3OB(O)c4ccccc43)c2c1 (configuration not stated) | 4.17

Inquiry: Request the reported pIC50 associated with CNc1ccc(C2OB(O)c3cccc(F)c32)cc1 (configuration not stated)
Reply text: 4.29

Inquiry: Item CN(C)c1ccc(C2OB(O)c3cc4c(cc32)OCO4)cc1 (configuration not stated) has what recorded pIC50?
Reply text: 4.78

Inquiry: Give the measured pIC50 of OB1OC(c2ccccc2)c2ccccc21 (configuration not stated) .
Reply text: 4.05

Inquiry: Entry under review: OB1OC(c2c[nH]c3ccc(Br)cc23)c2ccccc21 (configuration not stated) . Reported pIC50?
Reply text: 4.62

Inquiry: Which pIC50 is reported for this compound? OB1OC(c2cn(Cc3ccccc3)c3ccccc23)c2ccccc21 (configuration not stated)
Reply text: 4.80

====

target: Beta-lactamase TEM (Bacteria, UniProt P62593); experiment: Inhibition of bacterial Beta-lactamase TEM-1 (24 - 286) (unknown origin) expressed in Escherichia coli Transetta (DE3)
Sequence (P62593 whole entry): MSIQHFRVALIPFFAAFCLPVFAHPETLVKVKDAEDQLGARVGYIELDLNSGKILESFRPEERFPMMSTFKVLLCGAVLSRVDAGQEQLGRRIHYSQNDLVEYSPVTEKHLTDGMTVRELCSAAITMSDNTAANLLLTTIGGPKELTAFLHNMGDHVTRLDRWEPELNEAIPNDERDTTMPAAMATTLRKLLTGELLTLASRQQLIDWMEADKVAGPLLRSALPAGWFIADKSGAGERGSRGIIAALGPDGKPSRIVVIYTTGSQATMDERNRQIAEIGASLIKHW
ASSAY_READOUT: IC50

Inquiry: Quick one: IC50 of OB1OC(c2c[nH]c3ccccc23)c2ccccc21 (stereo not drawn) ?
Reply text: > 100 µM

Inquiry: Using the record for OB1OC(c2c[nH]c3ccc(OCc4ccccc4)cc23)c2ccccc21 (stereo not drawn) , report its IC50.
Reply text: > 100 µM

Inquiry: Reported IC50 for OB1OC(c2c[nH]c3ccc(Br)cc23)c2ccc(F)cc21 (stereo not drawn) : what is it?
Reply text: > 100 µM

====

test: Inhibition of bacterial New Delhi metallo-beta-lactamase 1 (1- 270) (unknown origin) expressed in Escherichia coli Transetta (DE3); parameters: species or system Bacteria
ASSAY_READOUT: IC50 (µM)
The figure you give is taken to be in µM; do not add the unit.

These solved cases illustrate the format of a correct answer.
CN(C)c1ccc(C2OB(O)c3ccc(F)cc32)cc1 (centres undefined) | 11.2
CNc1ccc(C2OB(O)c3ccccc32)cc1 (centres undefined) | 57.4
CN(C)c1ccc(C2OB(O)c3ccccc32)cc1 (centres undefined) | 8.44
CN(C)c1ccc(C2OB(O)c3cc(Cl)ccc32)cc1 (centres undefined) | 61.7
OB1OC(c2cccs2)c2ccccc21 (centres undefined) | 22.4

Inquiry: Request the reported IC50 associated with OB1OC(c2ccc(N3CCCCC3)cc2)c2ccccc21 (centres undefined)
Reply text: 11.7

Inquiry: Give its IC50 value. Item: COc1ccc2c(c1)C(c1ccc(N(C)C)cc1)OB2O (centres undefined)
Reply text: 38.4

Inquiry: IC50 lookup needed for CN(C)c1ccc(C2OB(O)c3cccc(F)c32)cc1 (centres undefined) , thanks.
Reply text: 25.6

Inquiry: I'd like to know its IC50. The compound in question is OB1OC(c2c[nH]c3ccccc23)c2c(F)cccc21 (centres undefined)
Reply text: 25.4

====

test: Inhibition of bacterial New Delhi metallo-beta-lactamase 1 (1- 270) (unknown origin) expressed in Escherichia coli Transetta (DE3); set-up: species or system Bacteria
ASSAY_READOUT: IC50

Sample answers from the record:
OB1OC(c2c[nH]c3ccc(Cl)cc23)c2ccccc21 (stereo not given) | > 100 µM
OB1OC(c2c[nH]c3ccc(OCc4ccccc4)cc23)c2ccccc21 (stereo not given) | > 100 µM
NC(=O)[C@@H]1CC[C@@H]2CN1C(=O)N2OS(=O)(=O)O | > 100 µM
OB1OC(c2c[nH]c3ccc(F)cc23)c2ccccc21 (stereo not given) | > 100 µM

From here, focus on the item given below.
Inquiry: Would you kindly share the measured IC50 for OB1OC(c2c[nH]c3ccc(Br)cc23)c2ccc(F)cc21 (stereo not given) ?
Reply text: > 100 µM
